# System: Staphylococcus aureus
# assay text: Antibacterial activity against Staphylococcus aureus ATCC 29213 after 18 hrs by broth microdilution method
# Format: functional
# test parameters: ATCC 29213, 18 h
# true (1) = MIC below 4 µg/mL (exclusive); false (0) = MIC at/above 4 µg/mL

Use these answered entries as a reference point.
CCCc1c(Cl)c(OC)cc2c1Oc1c(Cl)c(O)c(Cl)c(CCC)c1C(=O)O2 true (1)
CCCc1c(Cl)c(O)cc2c1OC(=O)c1c(CCC)c(Cl)c(O)c(Cl)c1O2 true (1)
CCCc1cc(O)cc2c1Oc1c(Cl)c(O)cc(CCC)c1C(=O)O2 false (0)
CCCc1cc(O)cc2c1Oc1cc(O)c(Cl)c(CCC)c1C(=O)O2 false (0)
CC1(C)S[C@@H]2[C@H](NC(=O)Cc3ccccc3)C(=O)N2[C@H]1C(=O)O true (1)
CCCc1c(Cl)c(OC)cc2c1OC(=O)c1c(CCC)c(Cl)c(O)c(Cl)c1O2 true (1)
CCCc1c(Cl)c(O)cc2c1Oc1c(Cl)c(O)c(Cl)c(CCC)c1C(=O)O2 true (1)
CCCc1c(Cl)c(OC)c(Cl)c2c1OC(=O)c1c(CCC)c(Cl)c(O)c(Cl)c1O2 true (1)

## Input Strictly below 4 µg/mL in MIC? CCCc1cc(O)c(Cl)c2c1C(=O)Oc1cc(O)c(Cl)c(CCC)c1O2
## Output true (1)

## Input Strictly below 4 µg/mL in MIC? CCCc1c(Cl)c(OC)c(Cl)c2c1Oc1c(Cl)c(O)c(Cl)c(CCC)c1C(=O)O2
## Output true (1)

====

# System: Enterococcus faecalis
# assay text: Antibacterial activity against vancomycin-resistant Enterococcus faecalis ATCC 51299 after 18 hrs by broth microdilution method
# Assay type: functional, organism-based
# test parameters: ATCC 51299, 18 h, read-out: IC50
value type: MIC (µM)
Answers are plain numbers, in µM.

Examples with their reported MIC follow.
CCCc1c(Cl)c(OC)c(Cl)c2c1Oc1c(Cl)c(O)c(Cl)c(CCC)c1C(=O)O2 4
CCCc1c(Cl)c(O)cc2c1Oc1c(Cl)c(O)c(Cl)c(CCC)c1C(=O)O2 32
C[C@H]1COc2c(N3CCN(C)CC3)c(F)cc3c(=O)c(C(=O)O)cn1c23 1

Please report MIC for every entry that follows.
1. CCCc1cc(O)c(Cl)c2c1Oc1c(Cl)c(O)c(Cl)c(CCC)c1C(=O)O2
2. CCCc1c(Cl)c(O)c(Cl)c2c1Oc1c(Cl)c(O)c(Cl)c(CCC)c1C(=O)O2

## Output
[16, 64]

====

Record form. Attribute: MIC. Fill in for each entry.
# System: Bacillus subtilis
# assay text: Antibacterial activity against Bacillus subtilis SCSIO BS01 after 18 hrs by broth microdilution method
# Assay type: functional
# test parameters: SCSIO BS01, 18 h
One number for each entry, in µg/mL.

Examples with their reported MIC follow.
CCCc1c(Cl)c(OC)c(Cl)c2c1OC(=O)c1c(CCC)c(Cl)c(O)c(Cl)c1O2 0.25
CCCc1cc(O)cc2c1OC(=O)c1c(CCC)c(Cl)c(O)c(Cl)c1O2 2
CCCc1c(Cl)c(OC)c(Cl)c2c1Oc1c(Cl)c(O)c(Cl)c(CCC)c1C(=O)O2 0.125
CCCc1c(Cl)c(OC)cc2c1OC(=O)c1c(CCC)c(Cl)c(O)c(Cl)c1O2 0.5
CCCc1cc(O)cc2c1Oc1cc(O)cc(CCC)c1C(=O)O2 8
CCCc1cc(O)c(Cl)c2c1C(=O)Oc1cc(O)c(Cl)c(CCC)c1O2 2
CCCc1c(Cl)c(O)c(Cl)c2c1OC(=O)c1c(CCC)c(Cl)c(O)c(Cl)c1O2 2

The record that follows has no MIC shown yet.
Summary: CCCc1cc(O)c(Cl)c2c1Oc1c(Cl)c(O)c(Cl)c(CCC)c1C(=O)O2 , Bacillus subtilis, MIC = 1
